From: patent US20180186742A1

# Test system: Puccinia triticina
# method.summary: Wheat brown rust (PUCCRT), disease control on wheat seedlings
# Format: in vivo
# condition.info: 72 h, high volume application at 100 ppm, 3 Day Curative, read-out: PUCCRT disease control, 3DC, HV activity
observed.property: pest or weed control at 100 ppm

Q) What measured pest or weed control at 100 ppm goes with `COc1ccnc(C(=O)N[C@@H](C)C(=O)O[C@@H](C)[C@H](c2ccccc2OC(C)C)C(C)C)c1O` ?
A) > 80%

Q) Subsequent entry: `COc1ccnc(C(=O)N[C@@H](C)C(=O)O[C@@H](C)[C@@H](c2ccc(F)cc2F)C(C)C)c1O`
A) < 80%

Q) Subsequent entry: `COc1ccnc(C(=O)N[C@@H](C)C(=O)O[C@@H](C)[C@@H](c2ccc(F)cc2C)C(C)C)c1O`
A) < 0%

Q) Subsequent entry: `COc1ccnc(C(=O)N[C@@H](C)C(=O)O[C@@H](C)[C@@H](c2ccc(C)cc2F)C(C)C)c1O`
A) < 80%

Q) Subsequent entry: CCC(CC)[C@@H](c1ccccc1)C(C)OC(=O)[C@H](C)NC(=O)c1nccc(OC)c1O (some centres unmarked)
A) > 80%

Q) Subsequent entry: `COc1ccnc(C(=O)N[C@@H](C)C(=O)O[C@@H](C)[C@H](c2ccc(Cl)cc2Cl)C(C)C)c1O`
A) > 80%

Q) Subsequent entry: `COc1ccnc(C(=O)N[C@@H](C)C(=O)O[C@@H](C)[C@H](c2ccc(OC(F)(F)F)cc2)C(C)C)c1O`
A) > 80%

Q) Subsequent entry: `COc1ccnc(C(=O)N[C@@H](C)C(=O)O[C@@H](C)[C@@H](c2ccc(C)cc2C)C2CCC2)c1O`
A) < 80%

Q) Subsequent entry: `COc1ccnc(C(=O)N[C@@H](C)C(=O)O[C@@H](C)[C@H](c2ccc(F)cc2F)C(C)C)c1O`
A) > 80%

Q) Subsequent entry: `COc1ccnc(C(=O)N[C@@H](C)C(=O)O[C@H](C)[C@H](c2ccc(F)cc2C)C2CCCCC2)c1O`
A) < 0%

Q) Subsequent entry: `COc1ccnc(C(=O)N[C@@H](C)C(=O)O[C@@H](C)[C@H](c2c(F)cccc2Cl)C(C)C)c1O`
A) > 80%

Q) Subsequent entry: `COc1cc(F)ccc1[C@H](C1CCC1)[C@H](C)OC(=O)[C@H](C)NC(=O)c1nccc(OC)c1O`
A) > 80%

Q) Subsequent entry: `COc1ccnc(C(=O)N[C@@H](C)C(=O)O[C@@H](C)[C@@H](c2ccc(F)cc2C)C2CCCCC2)c1O`
A) < 80%

Q) Subsequent entry: `COc1ccnc(C(=O)N[C@@H](C)C(=O)O[C@@H](C)[C@H](c2c(F)cc(F)cc2F)C(C)C)c1O`
A) > 80%
